system: SNB-75 CNS; test: NCI tumour cell line growth inhibition, 48 h; in the data active = GI50 below about 0.43 µM; inactive = the rest
Could you please pick one outcome from this set? 1 (yes) (active), 0 (no) (inactive)

Query: I would be grateful if you could indicate the recorded call for "CCCc1cc(=O)[nH]c(-n2nc(C)cc2C)n1" .
Result: 0 (no)

Query: Please share the test call associated with "O=C(Nc1cccc(-n2cc(-c3ccncc3)c(-c3cc(O)cc(Cl)c3)n2)c1)Nc1ccc(Cl)c(C(F)(F)F)c1" .
Result: 0 (no)

Query: Answer briefly: the call reported for "C=C1/C(=C\C=C2/CCC[C@]3(C)[C@@H]([C@H](C)CCCC(C)(C)O)CC[C@@H]23)C[C@@H](OC(=O)CBr)C[C@@H]1O" in this assay.
Result: 1 (yes)

Query: Kindly provide the recorded test outcome for the following compound: "O=S(=O)(Nc1ccc(Br)c(Cl)c1)c1ccc(-c2cnc(C3CC3)o2)cc1"
Result: 1 (yes)

Query: Given CCC1CN2C(=N1)c1ccccc1-c1cc(Cl)ccc12 (stereo not drawn) , state the outcome it received in this test.
Result: 0 (no)

Query: Could you kindly confirm the outcome this assay logged for "COc1cccc(-c2nn(-c3ccccc3)cc2-c2ccnc(NCCCNC(=O)Nc3ccc(Cl)c(Cl)c3)c2)c1" ?
Result: 0 (no)

Query: Please let me know the test result on file for "COC1=CC(c2ccc[nH]2)=N/C1=C\c1[nH]c(C)c(C(=O)CCCCC(=O)NC(C)(C)C)c1C" .
Result: 0 (no)

Query: For "CCCCC[C@H]1C/C=C2/C(=O)C=C[C@@H]2C/C=C\CCCC(=O)O[C@@H](CCCCC)C/C=C2/C(=O)C=C[C@@H]2C/C=C\CCCC(=O)O1" , what call appears in the results of this test?
Result: 0 (no)
